tested on: CHO cells; experiment: Study of metabolism in vitro in CHO cells, steroids in culture medium by GC/MS; conditions: CHO cells
endpoint.label: metabolism in downstream active steroids (Reduced metabolism / Metabolized)

# molecule, observed.value
rows = [
    ("CC(=O)C1CCC2C3CC=C4C[C@@H](F)CC[C@]4(C)C3CC[C@]12C (stereo partly drawn) [Compound 1, 3β-Fluoropregnenolone]", "Reduced metabolism"),
    ("CCOC1(C(C)=O)CCC2C3CC=C4C[C@@H](O)CC[C@]4(C)C3CC[C@@]21C (stereo partly shown) [Compound 71, 17-Ethoxypregnenolone]", "Metabolized"),
    ("C[C@H](O)[C@H]1CCC2C3CC=C4C[C@@H](O)CC[C@]4(C)C3CC[C@@]21C (stereo partly drawn) [Compound 20, 5-Pregnen-3β,20α-diol]", "Reduced metabolism"),
    ("CC(=O)[C@]1(O)CCC2C3CC=C4C[C@@H](O)CC[C@]4(C)C3CC[C@@]21C (stereo partly drawn) [Compound 22, 17α-Hydroxypregnenolone]", "Metabolized"),
    ("CC(=O)C1=CC[C@H]2[C@@H]3CC=C4CCCC[C@]4(C)[C@H]3CC[C@]12C [Compound 39, 5,16-Pregnadien-20-one]", "Reduced metabolism"),
    ("CO[C@H]1CC[C@@]2(C)C(=CCC3C2CC[C@@]2(C)C3CC[C@]2(C)C(C)=O)C1 (stereo partly drawn) [Compound 35, 3β-Methoxy-17α-methylpregnenolone]", "Reduced metabolism"),
]

## Input Observed metabolism in downstream active steroids (Reduced metabolism / Metabolized) on CHO cells for CC(=O)[C@H]1CCC2C3CC[C@@H]4C[C@@H](O)CC[C@]4(C)C3CC[C@@]21C (stereo partly shown) [Compound 77] , please.
## Output Reduced metabolism

## Input Entry CNC(C)[C@H]1CC[C@H]2[C@@H]3CC=C4C[C@@H](O)CC[C@]4(C)[C@H]3CC[C@]12C (stereo partly drawn) [Compound 67, 20-Methylamino-5-pregnen-3β-ol] , system CHO cells: what metabolism in downstream active steroids (Reduced metabolism / Metabolized) was measured?
## Output Reduced metabolism

## Input Give CHO cells metabolism in downstream active steroids (Reduced metabolism / Metabolized) for C[C@@H](O)[C@H]1CCC2C3CCC4=C[C@@H](O)CC[C@]4(C)C3CC[C@@]21C (stereo in doubt) [Compound 12, 4-Pregnen-3β,20α-diol]
## Output Reduced metabolism

## Input Param readout = metabolism in downstream active steroids (Reduced metabolism / Metabolized); param system = CHO cells; param query = C[C@]12CCC3C(CC[C@H]4C[C@@H](O)CC[C@]34C)C1CC[C@@H]2C(=O)CO (stereo partly drawn) [Compound 76, 5α-Pregnan 3β,21-diol-20-one] ; response: value
## Output Metabolized

## Input // lookup metabolism in downstream active steroids (Reduced metabolism / Metabolized) | system=CHO cells | key= CC(=O)[C@H]1CCC2C3CC=C4CC(N=[N+]=[N-])CC[C@]4(C)C3CC[C@@]21C (stereo partly shown) [Compound 72, 3-Azidopregnenolone]
## Output Reduced metabolism

## Input Under CHO cells: metabolism in downstream active steroids (Reduced metabolism / Metabolized) value of CC(=O)C1CCC2C3CC=C4C[C@@H](N)CC[C@]4(C)C3CC[C@]12C (stereo partly drawn) [Compound 66, 3β-Aminopregnenolone] ?
## Output Metabolized

## Input Recall the recorded metabolism in downstream active steroids (Reduced metabolism / Metabolized) for C=CC[C@]1(C(C)=O)CCC2C3CC=C4C[C@@H](OC)CC[C@]4(C)C3CC[C@@]21C (stereo partly drawn) [Compound 69, 17α-Allyl-3β-methoxypregnenolone] with CHO cells and state it.
## Output Reduced metabolism

----------
target: CB1 receptor (Mus musculus, UniProt P47746); assay: Food intake in 24 h-food deprived mice (fasting/refeeding); type: in vivo, C57B1/6 mice; design: tissue Charles River Laboratories (France) (animals); host or cells: living mice, whole animal; settings: food-deprived (food-restricted) mice, no THC
Sequence (P47746 whole entry): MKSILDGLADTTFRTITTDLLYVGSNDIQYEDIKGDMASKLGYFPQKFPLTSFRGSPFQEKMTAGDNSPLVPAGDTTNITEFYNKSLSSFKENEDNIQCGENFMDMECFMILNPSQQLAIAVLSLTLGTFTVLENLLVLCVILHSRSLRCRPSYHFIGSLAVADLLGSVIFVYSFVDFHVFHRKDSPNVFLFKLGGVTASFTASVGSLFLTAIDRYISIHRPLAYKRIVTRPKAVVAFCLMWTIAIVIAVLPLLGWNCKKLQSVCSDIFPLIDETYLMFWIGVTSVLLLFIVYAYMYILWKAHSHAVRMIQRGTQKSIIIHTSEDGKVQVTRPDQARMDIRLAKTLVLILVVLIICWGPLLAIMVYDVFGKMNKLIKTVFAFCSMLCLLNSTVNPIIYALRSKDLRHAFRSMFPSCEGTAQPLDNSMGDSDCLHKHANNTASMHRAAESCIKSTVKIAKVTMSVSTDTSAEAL
Listed compounds paired with reported first statistically significant dose for decrease of food intake
Write it as a number; the unit mg/kg goes unstated.

## Input Item: CC(=O)C1CCC2C3CC=C4C[C@@H](F)CC[C@]4(C)C3CC[C@]12C (stereo partly shown) Test system: CB1 receptor (Mus musculus, UniProt P47746) Read-out: first statistically significant dose for decrease of food intake Value: ?
## Output 6

## Input Any idea what first statistically significant dose for decrease of food intake came out for CC(=O)[C@@]1(C)CCC2C3CC=C4C[C@@H](O)CC[C@]4(C)C3CC[C@@]21C (stereo partly shown) on CB1 receptor (Mus musculus, UniProt P47746)?
## Output 4

## Input Query first statistically significant dose for decrease of food intake on CB1 receptor (Mus musculus, UniProt P47746) for CC(=O)[C@@]1(C)CCC2C3CC=C4C[C@@H](F)CC[C@]4(C)C3CC[C@@]21C (stereo partly shown)
## Output 6

## Input For the record "CC(=O)[C@H]1CC[C@H]2[C@@H]3CC=C4C[C@@H](O)CC[C@]4(C)[C@H]3CC[C@]12C" , what value of first statistically significant dose for decrease of food intake is listed for CB1 receptor (Mus musculus, UniProt P47746)?
## Output 6

----------
system: CHO cells; assay: Study of metabolism in vitro in CHO cells, steroids in culture medium by GC/MS; details: CHO cells
endpoint.label: metabolism in downstream active steroids (Reduced metabolism / Metabolized)

# example entries with known answers
# molecule, observed.value
rows = [
    ("CC(=O)[C@H]1CC[C@H]2[C@@H]3CC=C4C[C@@H](OS(=O)(=O)[O-])CC[C@]4(C)[C@H]3CC[C@]12C.[Na+] [Compound 53, Pregnenolone sulfate sodium]", "Metabolized"),
    ("CC(=O)[C@H]1CCC2C3CC[C@H]4C[C@@H](O)CC[C@]4(C)C3CC[C@@]21C (some centres unmarked) [Compound 11]", "Metabolized"),
    ("C[C@]12CC[C@H](O)CC1=CCC1C2CC[C@@]2(C)C1CC[C@@H]2C(=O)CO (stereo partly drawn) [Compound 26, 5-Pregnen-3β,21-diol-20-one]", "Metabolized"),
    ("CC(=O)C1CCC2C3CC[C@H]4C[C@@H](OC(=O)CCC(=O)O)CC[C@]4(C)C3CC[C@]12C (some centres unmarked) [Compound 10]", "Metabolized"),
    ("CC[C@H]1CCC2C3CC=C4C[C@@H](O)CC[C@]4(C)C3CC[C@@]21C (some centres unmarked) [Compound 24, 20-Deoxypregnenolone]", "Reduced metabolism"),
    ("CC(=O)[C@@]1(Cc2ccccc2)CCC2C3CC=C4C[C@@H](OCc5ccccc5)CC[C@]4(C)C3CC[C@@]21C (stereo partly drawn) [Compound 63, 17α-Benzyl-3β-benzyloxypregnenolone]", "Reduced metabolism"),
    ("C[C@@H](O)[C@H]1CCC2C3CCC4=C[C@@H](O)CC[C@]4(C)C3CC[C@@]21C (stereo partly drawn) [Compound 13, 4-Pregnen-3β,20β-diol]", "Metabolized"),
    ("C[C@@H](O)[C@H]1CCC2C3CCC4=CC(=O)CC[C@]4(C)C3CC[C@@]21C (stereo partly drawn) [Compound 19, 4-Pregnen-20β-ol-3-one]", "Metabolized"),
]

## Input # metabolism in downstream active steroids (Reduced metabolism / Metabolized) lookup, item C[C@@H](O)[C@@]1(O)CCC2C3CCC4=CC(=O)CC[C@]4(C)C3CC[C@@]21C (stereo partly drawn) [Compound 15, 4-Pregnen-17α,20β-diol-3-one]
## Output Metabolized

## Input Query (molecule): CC(=O)[C@@]1(Cc2ccccc2)CCC2C3CC=C4C[C@@H](F)CC[C@]4(C)C3CC[C@@]21C (stereo partly drawn) [Compound 74, 17α-Benzyl-3β-fluoropregnenolone] ; field requested: metabolism in downstream active steroids (Reduced metabolism / Metabolized)
## Output Reduced metabolism

## Input I have this molecule here, C[C@@H](O)[C@H]1CCC2C3CC[C@H]4C[C@@H](O)CC[C@]4(C)C3CC[C@@]21C (stereo partly drawn) [Compound 8, 5α-Pregnan-3β,20α-diol] , and I need its recorded metabolism in downstream active steroids (Reduced metabolism / Metabolized).
## Output Metabolized

## Input Given the entry CC[C@]1(C(C)=O)CCC2C3CC=C4C[C@@H](O)CC[C@]4(C)C3CC[C@@]21C (stereo partly drawn) [Compound 32, 17α-Ethylpregnenolone] , report its measured metabolism in downstream active steroids (Reduced metabolism / Metabolized).
## Output Reduced metabolism

## Input Given the molecule CC(=O)[C@@]1(Cc2ccccc2)CCC2C3CCC4=CC(=O)CC[C@]4(C)C3CC[C@@]21C (stereo partly drawn) [Compound 73, 17α-Benzylprogesterone] , what is its reported metabolism in downstream active steroids (Reduced metabolism / Metabolized)?
## Output Reduced metabolism

## Input I have this molecule here, CC(=O)[C@@]1(C)CCC2C3CCC4=CC(=O)CC[C@]4(C)C3CC[C@@]21C (stereo partly drawn) [Compound 40, 17α-Methylprogesterone] , and I need its recorded metabolism in downstream active steroids (Reduced metabolism / Metabolized).
## Output Reduced metabolism

## Input What value of measured metabolism in downstream active steroids (Reduced metabolism / Metabolized) is listed for CO[C@H]1CC[C@@]2(C)C(=CCC3C2CC[C@@]2(C)C3CC[C@]2(Cc2ccccc2)C(C)=O)C1 (stereo partly drawn) [Compound 70, 17α-benzyl-3β-methoxypregnenolone] ?
## Output Reduced metabolism

## Input Quick one: metabolism in downstream active steroids (Reduced metabolism / Metabolized) for CC(=O)O[C@H]1CC[C@@]2(C)C(=CCC3C2CC[C@@]2(C)C3CC[C@@H]2C(C)=O)C1 (stereo partly drawn) [Compound 55, 3β-Acetoxypregnenolone] ?
## Output Metabolized

## Input metabolism in downstream active steroids (Reduced metabolism / Metabolized) for C[C@]12CC[C@H](O)CC1=CCC1C2CC[C@]2(C)C(=O)CCC12 (stereo partly drawn) [Compound 50, 5-Androsten-3β-ol-17-one (DHEA), reference compound] ?
## Output Metabolized
